# subjectOfTest: UniProt:P22460
# method: Kv1.5 Rb+ Efflux Assay
# setupConditions: inhibition of 86Rb+ efflux through Kv1.5; cells stably transfected with human Kv1.5; 10 point concentration response curves n=2; normalised to 2.5mM 4 amino-pyridine block
pIC50: −log10 of the molar value.
Everything with pIC50 lower than 5 is not met; everything else, including exactly 5, is met.

Worked examples, 8 compounds total:
{"smilesCode": "c1ccc(CNc2ncnc3scc(C4CCCCC4)c23)nc1", "subjectOfTest": "UniProt:P22460", "groupLabel": "met"}
{"smilesCode": "Clc1nc(NCc2ccco2)c2c(-c3ccccc3)csc2n1", "subjectOfTest": "UniProt:P22460", "groupLabel": "met"}
{"smilesCode": "c1ccc(-c2csc3ncnc(NCCc4ccccn4)c23)cc1", "subjectOfTest": "UniProt:P22460", "groupLabel": "met"}
{"smilesCode": "C=CCNc1ncnc2scc(-c3ccccc3)c12", "subjectOfTest": "UniProt:P22460", "groupLabel": "met"}
{"smilesCode": "CCOC(=O)CCNc1nc(NCc2ccccn2)c2c(-c3ccccc3)csc2n1", "subjectOfTest": "UniProt:P22460", "groupLabel": "met"}
{"smilesCode": "CNc1nc(NCc2ccccn2)c2c(-c3ccc(F)cc3)csc2n1", "subjectOfTest": "UniProt:P22460", "groupLabel": "met"}
{"smilesCode": "Clc1ccc(-c2csc3ncnc(NCCc4ccccc4)c23)cc1", "subjectOfTest": "UniProt:P22460", "groupLabel": "not met"}
{"smilesCode": "CC(C)CNc1ncnc2scc(-c3cccs3)c12", "subjectOfTest": "UniProt:P22460", "groupLabel": "met"}

// query Kindly determine if pIC50 recorded for c1ccc(-c2csc3ncnc(NCCCn4ccnc4)c23)cc1 is above or exactly 5.
// result not met

// query Kindly determine if pIC50 recorded for c1ccc(-c2csc3ncnc(NCc4csc(-c5cccs5)n4)c23)cc1 is above or exactly 5.
// result not met

// query Kindly determine if pIC50 recorded for COc1ccc(CCNc2ncnc3scc(-c4ccc(C)cc4)c23)cc1OC is above or exactly 5.
// result met

// query Kindly determine if pIC50 recorded for COc1nc(NCc2ccccn2)c2c(-c3ccccc3)csc2n1 is above or exactly 5.
// result met

// query Kindly determine if pIC50 recorded for Clc1ccc(-c2csc3ncnc(NCc4ccco4)c23)cc1 is above or exactly 5.
// result met

----------
# subjectOfTest: hKv1.5 (Homo sapiens, UniProt P22460)
# Sequence (P22460 whole entry): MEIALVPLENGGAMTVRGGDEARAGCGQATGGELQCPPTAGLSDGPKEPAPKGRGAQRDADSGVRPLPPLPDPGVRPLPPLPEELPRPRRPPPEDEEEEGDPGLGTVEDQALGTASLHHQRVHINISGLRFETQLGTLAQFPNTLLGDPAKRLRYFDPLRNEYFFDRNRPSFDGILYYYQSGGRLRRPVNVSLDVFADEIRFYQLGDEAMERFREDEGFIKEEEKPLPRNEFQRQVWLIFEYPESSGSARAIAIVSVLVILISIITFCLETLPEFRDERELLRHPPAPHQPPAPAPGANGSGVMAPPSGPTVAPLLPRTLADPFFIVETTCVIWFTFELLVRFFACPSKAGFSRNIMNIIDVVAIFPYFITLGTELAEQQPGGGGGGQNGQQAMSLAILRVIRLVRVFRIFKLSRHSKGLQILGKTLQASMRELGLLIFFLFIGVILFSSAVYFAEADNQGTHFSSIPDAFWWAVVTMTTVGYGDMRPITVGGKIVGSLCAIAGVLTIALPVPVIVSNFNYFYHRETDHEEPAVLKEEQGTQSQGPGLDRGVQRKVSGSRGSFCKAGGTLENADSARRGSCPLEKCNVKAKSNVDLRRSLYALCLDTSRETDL
# method: Kv1.5 Autopatch Electrophysiology (whole cell patch-clamp)
# Assay type: cell-based
# setupConditions: compound at 1µM, room temperature (22-24°C), held at -80mV, step to 0mV for 1000ms, total charge measured
readoutType: inhibition at 1 µM (%)
Reply with just the number (in %).

Here is how some compounds turned out for inhibition at 1 µM.
{"smilesCode": "Cc1ccccc1-c1csc2ncnc(NCc3ccccn3)c12", "dataValue": 49.7}
{"smilesCode": "c1ccc(-c2csc3ncnc(SCc4ccco4)c23)cc1", "dataValue": 43.6}

// query Please list inhibition at 1 µM recorded for the compound CN(C)CCOc1nc(NCc2ccccn2)c2c(-c3ccccc3)csc2n1
// result 89

----------
# subjectOfTest: human Kv1.5 (Homo sapiens, UniProt P22460)
# method: Kv1.5 Rb+ Efflux Assay
# setupConditions: inhibition of 86Rb+ efflux through Kv1.5; cells stably transfected with human Kv1.5; 10 point concentration response curves n=2; normalised to 2.5mM 4 amino-pyridine block
Property: pIC50; scope: individual compounds
Note: pIC50 values are expressed as the negative base-10 logarithm of concentration in M.

Here is how some compounds turned out for pIC50.
{"compound": "c1ccc(CCNc2ncnc3scc(-c4ccccc4)c23)cc1 [Example 90]", "dataValue": 5.00}
{"compound": "Cc1ccccc1-c1csc2ncnc(NCc3ccccn3)c12 [Example 142]", "dataValue": 5.89}

We next turn to a different compound, shown below.
// query Please list pIC50 recorded for the compound Cc1sc2ncnc(NCc3ccccn3)c2c1-c1ccccc1 [Example 157]
// result 6.62
